- System: Her2 protein in MCF-7 breast cancer cells
- protocolText: Cell-based Her2 degradation assay by Western Blot
- assaySetup: Homo sapiens, MCF7; Table 2, values without asterisk; MCF-7 cells, 24 hours; read-out: IC50, Her2 degradation WB
- Source text: Addition of Hsp90 inhibitors to cancer cells induces the proteasomal degradation of a subset of proteins involved in signal transduction such as Raf1 kinase, Akt and certain transmembrane tyrosine kinases such as Her2. Thus, Her2 degradation in cells is a functional read-out of Hsp90 inhibition. Correlation between Hsp90 binding and Her2 degradation in cancer cells is indicative of a selective biological effect in these cells via Hsp90. […]
# IC50 annotations

compound: COc1ccc(NC2=CC(=O)C(=O)c3ccccc32)c(OC)c1 [Compound 53]
IC50: 2.5 to 5 µM

compound: CC(C)CN(CC(C)C)C1=CC(=O)C(=O)c2ccccc21 [Compound 49]
IC50: 2.5 to 5 µM

compound: O=C1C=C(Nc2ccc3c(c2)OCO3)c2ccccc2C1=O [Compound 55]
IC50: 2.5 to 5 µM
